List of IC50 values.
Tested on: lipid droplet accumulation in TG/FA-treated hiPSC-Hep
Experiment: hiPSC-Hep ER-stress (TG/FA) induced lipid droplet accumulation high-content assay, integrated spot signal (BODIPY 493/503)
Format: cell-based, human
Conditions: Homo sapiens; 10-point dose-response, pre-treatment then TG/FA 18 h; read-out: IC50, inhibition of lipid accumulation (integrated spot signal)
Form entry: value (nM) — number only.

CNC(=O)c1nn(C)c2c1C(C)(C)Cc1cnc(Nc3ccc(N4CCN(C)CC4)cc3)nc1-2    4600

Provide IC50 value for the following molecule: Cc1ncc(-c2nc(Nc3ccc(N4CCN(C(=O)CO)CC4)cc3)ncc2F)n1C(C)C
320
